Where these numbers come from: patent US20150337042A1

Please go through the items and note down their KD ratio (Ab1/variant Ab).
ASSAYED_SYSTEM: T1, truncated wild type EGFR 1-525 (EGFR1 (1-525)-SRGPF-Myc-NMHTG-6His) (human, UniProt P00533 25-525)
T1 construct: the signal peptide is left out; not shown: Myc tag
PROCEDURE_DETAILS: SPR (Biacore), antibody captured via anti-human Fc, antigen injected
Numbers only.

| BINDER | KD ratio (Ab1/variant Ab) |
| --- | --- |
| Antibody A (AbA) (antibody, human IgG1, kappa, V domains shown, IgG1) VH: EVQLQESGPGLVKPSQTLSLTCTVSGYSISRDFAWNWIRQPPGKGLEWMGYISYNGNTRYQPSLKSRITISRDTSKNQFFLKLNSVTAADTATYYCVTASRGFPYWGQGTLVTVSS VL: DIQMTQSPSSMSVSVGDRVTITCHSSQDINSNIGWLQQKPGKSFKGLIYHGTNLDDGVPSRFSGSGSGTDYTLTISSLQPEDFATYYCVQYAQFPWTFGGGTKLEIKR | 10.1 |
| Antibody D (AbD) (antibody, V domains shown, Full length IgG1) VH: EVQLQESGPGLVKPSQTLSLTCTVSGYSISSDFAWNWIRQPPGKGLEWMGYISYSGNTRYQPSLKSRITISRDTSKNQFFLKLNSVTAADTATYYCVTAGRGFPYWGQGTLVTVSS VL: DIQMTQSPSSMSVSVGDRVTITCHSSQDINSNLGWLQQKPGKSFKGLIYHGANLHDGVPSRFSGSGSGTDYTLTISSLQPEDFATYYCVQYAEFPWTFGGGTKLEIK | 4.1 |
| Antibody B (AbB) (antibody, V domains shown, Converted from scFv into a full length IgG1 antibody) VH: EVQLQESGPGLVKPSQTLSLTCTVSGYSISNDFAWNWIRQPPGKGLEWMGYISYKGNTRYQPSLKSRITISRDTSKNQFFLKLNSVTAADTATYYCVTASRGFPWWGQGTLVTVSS VL: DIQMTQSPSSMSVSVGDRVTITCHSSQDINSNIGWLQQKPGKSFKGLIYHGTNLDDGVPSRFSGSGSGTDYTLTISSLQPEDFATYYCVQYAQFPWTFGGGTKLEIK | 10.5 |
| Antibody L (AbL) (antibody, V domains shown, Full length IgG1) VH: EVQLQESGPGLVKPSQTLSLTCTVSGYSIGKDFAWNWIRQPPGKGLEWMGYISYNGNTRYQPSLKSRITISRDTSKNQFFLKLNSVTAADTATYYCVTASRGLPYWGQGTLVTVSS VL: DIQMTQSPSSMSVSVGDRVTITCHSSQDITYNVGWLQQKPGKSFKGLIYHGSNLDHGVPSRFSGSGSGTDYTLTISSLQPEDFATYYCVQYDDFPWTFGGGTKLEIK | 722 |

Below: the item to evaluate.
IN: I have this binder here, Antibody O (AbO) (antibody, V domains shown, Full length IgG1; also called Antibody 0) VH: EVQLQESGPGLVKPSQTLSLTCTVSGYSIGKDFAWNWIRQPPGKGLEWMGYISYNGNTRYQPSLKSRITISRDTSKNQFFLKLNSVTAADTATYYCVTASRGFPYWGQGTLVTVSS VL: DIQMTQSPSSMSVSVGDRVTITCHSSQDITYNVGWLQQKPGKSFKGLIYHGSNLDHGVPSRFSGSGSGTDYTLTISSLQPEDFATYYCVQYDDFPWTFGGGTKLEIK , and I need its recorded KD ratio (Ab1/variant Ab).
OUT: 582
